- Test system: P. aeruginosa PΔ3-Pore cells
- PROCEDURE TEXT: LC–MS quantification of intracellular accumulation, PΔ3-Pore;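 further: slope of accumulation versus external concentration fitted as a line through zero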
- DETAILS: 40 min incubation, 10-80 µM
Counter-ions that a name gives are not always drawn.
Rule for this label: condition met means Concentration slopes of accumulation, PΔ3-Pore_40min is less than 20; condition not met means Concentration slopes of accumulation, PΔ3-Pore_40min is at least 20.

Below are worked cases with known answers.
• CC(Cc1ccc(O)cc1)NCC(O)c1cc(O)cc(O)c1 (stereo not shown) [OU-0000755, Fenoterol HBr] = condition met
• CCN1CCCC1CNC(=O)c1cc(S(N)(=O)=O)ccc1OC.Cl (stereo not shown) [OU-0032505, Sulpiride HCl] = condition met
• CC(CCc1ccccc1)NCC(O)c1ccc(O)c(C(N)=O)c1 (stereo not shown) [OU-0000748, Labetalol HCl] = condition not met
• O=C(c1ccc(OCCN2CCCCC2)cc1)c1c(-c2ccc(O)cc2)sc2cc(O)ccc12 [OU-0000741, Raloxifene HCl] = condition not met
• COc1c(N2C[C@@H]3CCCN[C@@H]3C2)c(F)cc2c(=O)c(C(=O)O)cn(C3CC3)c12 [OU-0000626, MOXIFLOXACIN HYDROCHLORIDE] = condition met

Query: Please state whether Concentration slopes of accumulation, PΔ3-Pore_40min is below 20 for CCn1cc(C(=O)O)c(=O)c2cc(F)c(N3CCNC(C)C3)c(F)c21 (stereo not shown) [OU-0000616, LOMEFLOXACIN]
Response: condition met

Query: # strict comparison: is reported Concentration slopes of accumulation, PΔ3-Pore_40min < 20? input = CC(=O)NC[C@H]1CN(c2ccc(N3CCOCC3)c(F)c2)C(=O)O1 [OU-0031508, linezolid]
Response: condition not met

====

- System: P. aeruginosa PAO1 cells
- PROCEDURE TEXT: LC–MS quantification of intracellular accumulation, PAO1;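 further: slope of accumulation versus external concentration fitted as a line through zero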
- DETAILS: 1 min incubation, 10-80 µM
Counter-ions that a name gives are not always drawn.
ASSAY ENDPOINT: Concentration slopes of accumulation, PAO1_1 min
Give bare numbers.

* O=C1CC2(CCCC2)CC(=O)N1CCCCN1CCN(c2ncccn2)CC1 [OU-0000735, Buspirone HCl] | 6.08
* CCn1cc(C(=O)O)c(=O)c2cc(F)c(N3CCNCC3)cc21 | 37.81
* N[C@@H](CC(=O)N1CCn2c(nnc2C(F)(F)F)C1)Cc1cc(F)c(F)cc1F [OU-0000833, Sitagliptin Monophosphate Monohydrate] | 7.55
* CC1CCc2c(N3CCC(O)CC3)c(F)cc3c(=O)c(C(=O)O)cn1c23 (stereo not drawn) | 6.36

Would you mind listing Concentration slopes of accumulation, PAO1_1 min for each of the following compounds?
1. O=C(O)c1cn(C2CC2)c2cc(N3CCNCC3)c(F)cc2c1=O
2. Cc1cc(C)nc(NS(=O)(=O)c2ccc(N)cc2)n1
3. CN1CCN(c2cc3c(cc2F)c(=O)c(C(=O)O)cn3-c2ccc(F)cc2)CC1
4. CC1CN=C(c2ccc(NC(=O)Nc3ccc(C4=NCCN4)cc3)cc2)N1.Cl (stereo not drawn)
5. CCn1cc(C(=O)O)c(=O)c2cc(F)c(N3CCN(C)CC3)cc21 [OU-0000619, PEFLOXACINE MESYLATE]

Response:
1: 1.15; 2: 1.42; 3: 3.78; 4: 3.79; 5: 14.50

Batch lookup, Concentration slopes of accumulation, PAO1_1 min per entry.
1. CCOC(=O)NC(=S)Nc1ccccc1NC(=S)NC(=O)OCC [OU-0000837, Thiophanate]
2. CCn1cc(C(=O)O)c(=O)c2cc3c(cc21)OCO3
3. CC(=O)NC[C@H]1CN(c2ccc(N3CCOCC3)c(F)c2)C(=O)O1

Response:
1: 3.24; 2: 5.93; 3: 34.71
